# maps each entry to its Inhibitory concentrations by method: MARA MTCmean
System: 11 different microbial strains
Conditions: mean MTC for the 11 microbial strains
Procedure: • dispense 150 μl of growth medium with indicator in each well • add a concentration gradient of the chemical to be tested to rows B-H in a MARA plate (i.e. an indicator device according to the present invention) • incubate for 16 h • read absorbance values; and • analyse with software. Microbial responses to different chemicals was estimated by kinetic measurements of their growth using the Labsystem automated IEMS reader. […]
// note: answer is a bare numeric in mg/mL

Below, 2 compounds whose answers are already recorded.
INSERT INTO assay_data (compound_smiles, experimental_target, recorded_number) VALUES
  ('Cn1c(=O)c2c(ncn2C)n(C)c1=O', '11 different microbial strains', 2.085),
  ('C[C@H]1O[C@@H](O[C@H]2[C@@H](O)C[C@H](O[C@H]3[C@@H](O)C[C@H](O[C@H]4CC[C@@]5(C)[C@H](CC[C@@H]6[C@@H]5C[C@@H](O)[C@]5(C)[C@@H](C7=CC(=O)OC7)CC[C@]65O)C4)O[C@@H]3C)O[C@@H]2C)C[C@H](O)[C@@H]1O', '11 different microbial strains', 0.770);

Kindly consider the entry below.
compound Oc1c(Cl)c(Cl)c(Cl)c(Cl)c1Cl , Inhibitory concentrations by method: MARA MTCmean observed: 0.005

* * *

System: Staphylococcus epidermidis (Karin12)
Test: MARA indicator device toxic fingerprint, microorganism no. 11
Settings: Microbial Toxic Concentration; incubation time 16 h
Method: • dispense 150 μl of growth medium with indicator in each well • add a concentration gradient of the chemical to be tested to rows B-H in a MARA plate (i.e. an indicator device according to the present invention) • incubate for 16 h • read absorbance values; and • analyse with software. Microbial responses to different chemicals was estimated by kinetic measurements of their growth using the Labsystem automated IEMS reader. […]
Where a name gives a salt, the structure may show the parent alone.
# maps each entry to its Toxic fingerprint: MTC value for microorganism no. 11
Would you mind answering with just the numeric figure?

Below, 4 molecules whose answers are already recorded.
INSERT INTO measurements (molecule, recorded_number) VALUES
  ('Cn1c(=O)c2c(ncn2C)n(C)c1=O [Caffeine]', 6.060),
  ('COc1ccc(CCN(C)CCCC(C#N)(c2ccc(OC)c(OC)c2)C(C)C)cc1OC (centres unmarked) [Verapamil HCl]', 0.371),
  ('CSc1ccc2c(c1)N(CCC1CCCCN1C)c1ccccc1S2 (centres unmarked) [Tioridazin HCl]', 0.006),
  ('[Cl-].[K+] [Potassium Chloride]', 31.300);

Kindly consider the entry below.
molecule [Cl-].[Cl-].[Mg+2] [Magnesium Chloride] , Toxic fingerprint: MTC value for microorganism no. 11 observed: 4.580

* * *

# maps each entry to its Toxic fingerprint: MTC value for microorganism no. 7
System: microorganism no. 7
Experiment: MARA indicator device toxic fingerprint, microorganism no. 7
Details: Microbial Toxic Concentration; incubation time 16 h
Counter-ions that a name gives are not always drawn.
Would you mind answering with just the numeric figure?

Below, 2 compounds whose answers are already recorded.
INSERT INTO assay_data (compound, recorded_number) VALUES
  ('[Cl-].[K+] [Potassium Chloride]', 67.300),
  ('C[C@H]1O[C@@H](O[C@H]2[C@@H](O)C[C@H](O[C@H]3[C@@H](O)C[C@H](O[C@H]4CC[C@@]5(C)[C@H](CC[C@@H]6[C@@H]5C[C@@H](O)[C@]5(C)[C@@H](C7=CC(=O)OC7)CC[C@]65O)C4)O[C@@H]3C)O[C@@H]2C)C[C@H](O)[C@@H]1O', 0.921);

compound CSc1ccc2c(c1)N(CCC1CCCCN1C)c1ccccc1S2 (stereo not drawn) [Tioridazin HCl] , Toxic fingerprint: MTC value for microorganism no. 7 observed: 0.042
